For each record, write down the corresponding pIC50.
Assay: Inhibition of gamma-secretase-mediated amyloid beta42 production by GS H4-8 SW1-42 assay
Settings: read-out: IC50
Quick note: pIC50 values are minus log10 of concentrations in mol/L.

pIC50 reported for this molecule CC(C)C[C@H](C(N)=O)N(Cc1ccc(C(C)C)cc1)S(=O)(=O)c1ccc(Cl)cc1 : 9.24

The molecule C[S+]([O-])CC[C@H](C(N)=O)N(Cc1ccc(C#N)cc1)S(=O)(=O)c1ccc(Cl)cc1 (stereo partly specified) showed pIC50 equal to 5.74

pIC50 in this record for CC(C)C[C@H](C(N)=O)N(Cc1ccc(OC(F)(F)F)cc1)S(=O)(=O)c1ccc(Cl)cc1 : 9.16

Data point: COc1ccc(CN([C@H](CC(C)C)C(=O)N(C)OC)S(=O)(=O)c2ccc(Cl)cc2)cc1 ; pIC50 = 6.80

The molecule listed as CC(C)C[C@H](C(N)=O)N(CC1CCN(Cc2ccccc2)CC1)S(=O)(=O)c1ccc(Cl)cc1 shows pIC50 equal to 7.77

pIC50 recorded for this molecule, COc1ccc(CN([C@H](CC(C)C)C(=O)NN)S(=O)(=O)c2ccc(Cl)cc2)cc1 , is 7.28

Form: molecule = CC(C)C[C@H](C(N)=O)N(CCCCCCn1ccnc1)S(=O)(=O)c1ccc(Cl)cc1 ; pIC50 = 8.31

# pIC50 of CC(C)C[C@H](C(N)=O)N(CCCc1ccccc1)S(=O)(=O)c1ccc(Cl)cc1 = 9.39

pIC50 reading for N#Cc1ccc(CN([C@H](CC2CC2)C(N)=O)S(=O)(=O)c2ccc(Cl)cc2)cc1 : 9.03

GET /value?item= CC(C)C[C@H](C(N)=O)N(CCCCN1CCOCC1)S(=O)(=O)c1ccc(Cl)cc1 &field=pIC50 returns 8.00

molecule CC(C)C[C@H](C(N)=O)N(Cc1ccc(CN(C)C)cc1)S(=O)(=O)c1ccc(Cl)cc1 , pIC50 observed: 8.11

====

Test: Inhibition of gamma-secretase-mediated amyloid beta42 production by GS H4-8 SW1-42 assay
Details: read-out: IC50
Recorded IC50 determines the group label, using bin 0 = under 3 nM, bin 1 = from 3 nM up to 400 nM, bin 2 = 400 nM and over

Task: Into which category would you place CC(C)C[C@H](C(N)=O)N(Cc1ccc(F)c(F)c1)S(=O)(=O)c1ccc(Cl)cc1 ?
Output: bin 0

Task: Class for CCN([C@H](CC(C)C)C(N)=O)S(=O)(=O)c1ccc(Cl)cc1 ?
Output: bin 0

Task: Category lookup for the compound COc1ccc(CN([C@H](CC(C)C)C(=O)NO)S(=O)(=O)c2ccc(Cl)cc2)cc1F
Output: bin 1

Task: Using the reported IC50, which band applies to COc1ccc(CN([C@H](CC(C)C)c2nc(C)no2)S(=O)(=O)c2ccc(Cl)cc2)cc1 ?
Output: bin 2

Task: Class (by measured IC50) for CNC(=O)[C@@H](CC(C)C)N(Cc1ccc(OC)cc1)S(=O)(=O)c1ccc(Cl)cc1
Output: bin 1

Task: Band for CC[C@H](C(N)=O)N(Cc1ccc(C#N)cc1)S(=O)(=O)c1ccc(Cl)cc1 ?
Output: bin 1

Task: Band for COc1ccc(CN([C@H](CC(C)C)C(N)=O)S(=O)(=O)c2cccc(Cl)c2)cc1F ?
Output: bin 1

Task: Consider Cc1ccc(S(=O)(=O)N(Cc2ccc(C#N)cc2)[C@H](CC(C)C)C(N)=O)cc1 . To which IC50 class does it belong?
Output: bin 0

Task: Consider COc1ccc(CN([C@H](CC(C)C)C(=O)N(C)C)S(=O)(=O)c2ccc(Cl)cc2)cc1 . To which IC50 class does it belong?
Output: bin 2

====

System: Liver microsomes
Experiment: Metabolic stability in human liver microsomes
Type: ADME, Microsome
measured property: Stability (nmol/min/mg)
Number in nmol/min/mg, nothing else.

// Stability lookup, compound = NC(=O)[C@@H](CC1CC1)N(Cc1ccc(C(F)(F)F)cc1)S(=O)(=O)c1ccc(Cl)cc1 , result: 0.23

The measured Stability associated with CCC[C@H](C(N)=O)N(Cc1ccc(OC)c(F)c1)S(=O)(=O)c1ccc(Cl)cc1 reads 0.3

Per the record, N#Cc1ccc(CN([C@H](CC2CC2)C(N)=O)S(=O)(=O)c2ccc(Cl)cc2)cc1 has Stability of 0.16

COc1ccc(CN([C@@H]2CCCCNC2=O)S(=O)(=O)c2ccc(Cl)cc2)cc1 yielded Stability of 0.23

====

Experiment: Inhibition of gamma-secretase-mediated amyloid beta42 production by GS H4-8 SW1-42 assay
Settings: read-out: IC50
Label satisfied when IC50 is strictly below 0.7 nM; otherwise label not satisfied.

Task: In the record for COc1ccc(CN([C@H](CC(C)C)c2nc(C)ns2)S(=O)(=O)c2ccc(Cl)cc2)cc1 , is IC50 less than 0.7 nM?
Output: not satisfied

Task: Please indicate whether the reported IC50 of COC[C@H](C(N)=O)N(Cc1ccc(C#N)cc1)S(=O)(=O)c1ccc(Cl)cc1 is strictly below 0.7 nM.
Output: not satisfied

Task: API: query returns whether the molecule falls strictly under 0.7 nM in IC50. Query: CC(C)C[C@H](C(N)=O)N(Cc1ccc(C(F)(F)F)cc1)S(=O)(=O)c1ccc(Cl)cc1
Output: satisfied

Task: State whether 0.7 nM exceeds IC50 recorded for COc1ccc(CN([C@H](CC(C)C)C(N)=O)S(=O)(=O)c2ccc(C(F)(F)F)cc2)cc1F .
Output: satisfied

Task: IC50 strictly < 0.7 nM for this molecule? COc1ccc(CN([C@@H](CC(C)C)C(N)=O)S(=O)(=O)c2ccc(Cl)cc2)cc1
Output: not satisfied

Task: Report whether reported IC50 is lower than 0.7 nM (strictly) for CC(C)C[C@H](C(N)=O)N(Cc1cc(F)cc(F)c1)S(=O)(=O)c1ccc(Cl)cc1
Output: satisfied

Task: For this molecule, is IC50 lower than 0.7 nM? COc1ccc(CN([C@H](CC(C)C)C(N)=O)S(=O)(=O)c2ccccc2)cc1F
Output: not satisfied

Task: Hi there! Is IC50 for C=CC[C@H](C(N)=O)N(Cc1ccc(OC)c(F)c1)S(=O)(=O)c1ccc(Cl)cc1 below 0.7 nM, do you know?
Output: satisfied

Task: Would you kindly verify if IC50 of CC(C)C[C@H](C(N)=O)N(Cc1ccc(C(C)(C)C)cc1)S(=O)(=O)c1ccc(Cl)cc1 is strictly less than 0.7 nM?
Output: satisfied

Task: Given COc1cccc(CN([C@H](CC(C)C)C(N)=O)S(=O)(=O)c2ccc(Cl)cc2)c1 , is recorded IC50 strictly lower than 0.7 nM?
Output: satisfied

Source listed as ChEMBL document CHEMBL2163294.
